IC50 listing for selected compounds.
Biological target: Probable nicotinate-nucleotide adenylyltransferase (Staphylococcus aureus (strain N315), UniProt P65502);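 also: confirmatory dose-response retesting of NadD inhibitor hits first found in an ultra-high-throughput screen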
Sequence (P65502 whole entry): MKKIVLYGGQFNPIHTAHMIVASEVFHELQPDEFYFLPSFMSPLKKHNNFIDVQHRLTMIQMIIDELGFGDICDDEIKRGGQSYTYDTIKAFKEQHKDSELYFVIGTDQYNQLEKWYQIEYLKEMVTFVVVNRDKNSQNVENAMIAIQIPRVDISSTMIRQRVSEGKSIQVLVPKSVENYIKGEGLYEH
Format: functional, Staphylococcus aureus subsp. aureus N315
Conditions: read-out: IC50_Mean
Active and inactive are the calls of the source. No rule for the calls is given here.

Examples from the recorded data:
Req: # query: IC50 of entry `C#CCN(C[C@H]1[C@H](OC(=O)Nc2cccs2)[C@H](OC(=O)Nc2cccs2)C[C@H]2C(=O)N(c3ccccc3)C(=O)[C@@H]12)S(=O)(=O)c1ccc(C)cc1`
Resp: 34.5 µM (active)

Req: # query: IC50 of entry `CC(C)Cn1c(=O)c(C(=O)Nc2ccccc2S(N)(=O)=O)c(O)c2ccccc21`
Resp: 61.2 µM (active)

Req: # query: IC50 of entry `COc1ccc(Oc2c(OC)cc(NCc3ccc(CN)cc3)c3ncccc23)cc1`
Resp: 41.3 µM (active)

Continuing:
Req: # query: IC50 of entry `COc1ccc(NS(=O)(=O)c2ccc(NC(=S)NC(=O)/C=C/c3ccc(C)cc3)cc2)nn1`
Resp: 39.3 µM (active)
